# procedure_text: Solubility in solvents by UHPLC assay
# Format: physicochemical
# conditions_used: DMSO, 60 °C, organic solvent or mixture, DMSO, 60 °C; read-out: Solubility

{"columns": ["chem_smiles", "solubility"],
 "data": [
  ["CS(=O)(=O)c1ccc(C2=C(c3ccccc3)C(=O)OC2)cc1", "181 mg/mL"]
]}

----------
# procedure_text: Solubility in solvents by UHPLC assay
# Format: physicochemical
# conditions_used: dichloromethane, 30 °C, organic solvent or mixture, Dichloromethane, 30 °C; read-out: Solubility
readout_label: solubility

{"columns": ["chem_smiles", "readout_label", "readout_value"],
 "data": [
  ["CS(=O)(=O)c1ccc(C2=C(c3ccccc3)C(=O)OC2)cc1", "solubility", "45 mg/mL"]
]}
